MEASUREMENT_NOTES: Plasma pharmacokinetics of BAY1436032 (LC-MS/MS)
Format: in vivo, human
CONDITION_DETAILS: human, plasma, oral; single-dose and continuous BID administration; read-out: Time of maximum plasma concentrations
QUANTITY: Tmax

{"MOLECULE_SMILES": "C[C@H]1C[C@@H](n2c(Nc3ccc(OC(F)(F)F)cc3)nc3cc(CCC(=O)O)ccc32)CC(C)(C)C1", "MEASURED": "3 to 4 h"}

* * *

MEASUREMENT_NOTES: Plasma pharmacokinetics of BAY1436032 (LC-MS/MS)
Format: in vivo, human
CONDITION_DETAILS: human, plasma, oral, 1200 mg, C1-D15 continuous BID, 1200 mg BID, n=6; geometric mean (CV); read-out: AUC(0-8)md
QUANTITY: AUC(0-t) (ng·h/mL)

{"MOLECULE_SMILES": "C[C@H]1C[C@@H](n2c(Nc3ccc(OC(F)(F)F)cc3)nc3cc(CCC(=O)O)ccc32)CC(C)(C)C1", "MEASURED": 22900}
